Just for reference, ChEMBL document CHEMBL1149790 is where these values come from.

system: Human alphaherpesvirus 3; experiment: Antiviral activity against TK- VZV 07/1 infected HEL cells assessed as reduction in virus plaque formation; format: functional, organism-based; settings: Human alphaherpesvirus 3, 07/1, HEL
Could you please mark Y for values of EC50 below 50 µg/mL and N for values at or above it?

sample_smiles=Cn1c(COc2ccc(N)cc2)n[nH]c1=S measured_target="Human alphaherpesvirus 3" class_assignment=N
sample_smiles=C=CCNC(=S)Nc1ccc(OCc2n[nH]c(=S)n2-c2ccccc2)cc1 measured_target="Human alphaherpesvirus 3" class_assignment=N
sample_smiles=Nc1ccc(OCc2n[nH]c(=S)n2-c2ccccc2)cc1 measured_target="Human alphaherpesvirus 3" class_assignment=N
sample_smiles=CCNC(=S)Nc1ccc(OCc2n[nH]c(=S)n2C)cc1 measured_target="Human alphaherpesvirus 3" class_assignment=N
sample_smiles=CNC(=S)Nc1ccc(OCc2n[nH]c(=S)n2C)cc1 measured_target="Human alphaherpesvirus 3" class_assignment=N
sample_smiles=CCn1c(COc2ccc(NC(=S)Nc3ccccc3)cc2)n[nH]c1=S measured_target="Human alphaherpesvirus 3" class_assignment=Y
sample_smiles=O=c1[nH]c(=O)n([C@H]2C[C@H](O)[C@@H](CO)O2)cc1/C=C/Br measured_target="Human alphaherpesvirus 3" class_assignment=Y
sample_smiles=CCn1c(COc2ccc(NC(=S)NC)cc2)n[nH]c1=S measured_target="Human alphaherpesvirus 3" class_assignment=N
sample_smiles=C=CCn1c(COc2ccc(N)cc2)n[nH]c1=S measured_target="Human alphaherpesvirus 3" class_assignment=N
sample_smiles=C=CCn1c(COc2ccc(NC(=S)Nc3ccccc3)cc2)n[nH]c1=S measured_target="Human alphaherpesvirus 3" class_assignment=Y
sample_smiles=CCn1c(COc2ccc(N)cc2)n[nH]c1=S measured_target="Human alphaherpesvirus 3" class_assignment=N
sample_smiles=Cn1c(COc2ccc(NC(=S)Nc3ccccc3)cc2)n[nH]c1=S measured_target="Human alphaherpesvirus 3" class_assignment=Y
sample_smiles=C=CCn1c(COc2ccc(NC(=S)NCC)cc2)n[nH]c1=S measured_target="Human alphaherpesvirus 3" class_assignment=N
sample_smiles=C=CCNC(=S)Nc1ccc(OCc2n[nH]c(=S)n2C)cc1 measured_target="Human alphaherpesvirus 3" class_assignment=N
sample_smiles=CCNC(=S)Nc1ccc(OCc2n[nH]c(=S)n2-c2ccccc2)cc1 measured_target="Human alphaherpesvirus 3" class_assignment=N
sample_smiles=C=CCn1c(COc2ccc(NC(=S)NC)cc2)n[nH]c1=S measured_target="Human alphaherpesvirus 3" class_assignment=N
sample_smiles=C=CCNC(=S)Nc1ccc(OCc2n[nH]c(=S)n2CC=C)cc1 measured_target="Human alphaherpesvirus 3" class_assignment=Y
sample_smiles=CCNC(=S)Nc1ccc(OCc2n[nH]c(=S)n2CC)cc1 measured_target="Human alphaherpesvirus 3" class_assignment=N
sample_smiles=CNC(=S)Nc1ccc(OCc2n[nH]c(=S)n2-c2ccccc2)cc1 measured_target="Human alphaherpesvirus 3" class_assignment=N
sample_smiles=S=C(Nc1ccccc1)Nc1ccc(OCc2n[nH]c(=S)n2-c2ccccc2)cc1 measured_target="Human alphaherpesvirus 3" class_assignment=Y
sample_smiles=C=CCNC(=S)Nc1ccc(OCc2n[nH]c(=S)n2CC)cc1 measured_target="Human alphaherpesvirus 3" class_assignment=Y

###

test: Cytotoxicity against human HEL cells assessed as alteration of cell morphology; assay type: cell-based
Quick reference: MCC of the listed items.
Measurement Label: MCC (µg/mL)

sample_smiles=CCNC(=S)Nc1ccc(OCc2n[nH]c(=S)n2-c2ccccc2)cc1 sign_qualifier=> test_result=400
sample_smiles=C=CCNC(=S)Nc1ccc(OCc2n[nH]c(=S)n2CC)cc1 sign_qualifier=> test_result=400
sample_smiles=CCNC(=S)Nc1ccc(OCc2n[nH]c(=S)n2C)cc1 sign_qualifier=> test_result=400
sample_smiles=C=CCn1c(COc2ccc(NC(=S)Nc3ccccc3)cc2)n[nH]c1=S sign_qualifier== test_result=400
sample_smiles=CNC(=S)Nc1ccc(-c2n[nH]c(=S)n2C)cc1 sign_qualifier== test_result=400
sample_smiles=C=CCNC(=S)Nc1ccc(-c2n[nH]c(=S)n2CC)cc1 sign_qualifier== test_result=400
sample_smiles=Nc1nc2c(ncn2COC(CO)CO)c(=O)[nH]1 sign_qualifier=> test_result=100
sample_smiles=CCCCCCNC(=S)Nc1ccc(-c2n[nH]c(=S)n2CCCCCC)cc1 sign_qualifier== test_result=16
sample_smiles=C=CCNC(=S)Nc1ccc(-c2n[nH]c(=S)n2CCc2ccccc2)cc1 sign_qualifier== test_result=400
sample_smiles=C=CCNC(=S)Nc1ccc(-c2n[nH]c(=S)n2CC=C)cc1 sign_qualifier=≥ test_result=80
sample_smiles=C=CCNC(=S)Nc1ccc(-c2n[nH]c(=S)n2C)cc1 sign_qualifier== test_result=400
sample_smiles=CNC(=S)Nc1ccc(-c2nnc(SCc3ccccc3)n2C)cc1 sign_qualifier=≥ test_result=16
sample_smiles=C=CCn1c(COc2ccc(NC(=S)NCC)cc2)n[nH]c1=S sign_qualifier=> test_result=400

###

Quick reference: MIC of the listed items.
test system: Human alphaherpesvirus 2; experiment: Antiviral activity against HSV2 G in human E6SM cells assessed as reduction of virus-induced cytopathogenicity; format: functional; conditions: Human alphaherpesvirus 2, G
Measurement Label: MIC (µg/mL)

compound=CCn1c(COc2ccc(NC(=S)Nc3ccccc3)cc2)n[nH]c1=S measurement_label=MIC units_label=µg/mL sign_qualifier=> test_result=80
compound=C=CCn1c(COc2ccc(NC(=S)NC)cc2)n[nH]c1=S measurement_label=MIC units_label=µg/mL sign_qualifier=> test_result=400
compound=C=CCNC(=S)Nc1ccc(OCc2n[nH]c(=S)n2-c2ccccc2)cc1 measurement_label=MIC units_label=µg/mL sign_qualifier== test_result=240
compound=C=CCNC(=S)Nc1ccc(-c2n[nH]c(=S)n2CCc2ccccc2)cc1 measurement_label=MIC units_label=µg/mL sign_qualifier=> test_result=80
compound="NC(=O)c1ncn([C@@H]2O[C@H](CO)[C@@H](O)[C@H]2O)n1 [RIBAVIRIN]" measurement_label=MIC units_label=µg/mL sign_qualifier== test_result=48
compound=CCNC(=S)Nc1ccc(OCc2n[nH]c(=S)n2-c2ccccc2)cc1 measurement_label=MIC units_label=µg/mL sign_qualifier=> test_result=400
compound=CCNC(=S)Nc1ccc(OCc2n[nH]c(=S)n2CC)cc1 measurement_label=MIC units_label=µg/mL sign_qualifier== test_result=240
compound=C=CCNC(=S)Nc1ccc(-c2n[nH]c(=S)n2-c2ccccc2)cc1 measurement_label=MIC units_label=µg/mL sign_qualifier=> test_result=80
compound=C=CCNC(=S)Nc1ccc(-c2n[nH]c(=S)n2C)cc1 measurement_label=MIC units_label=µg/mL sign_qualifier== test_result=240
compound=C=CCNC(=S)Nc1ccc(-c2nnc(SCc3ccc(Cl)cc3Cl)n2-c2ccccc2)cc1 measurement_label=MIC units_label=µg/mL sign_qualifier=> test_result=16
compound=Nc1ccc(OCc2n[nH]c(=S)n2-c2ccccc2)cc1 measurement_label=MIC units_label=µg/mL sign_qualifier== test_result=240
compound=C=CCNC(=S)Nc1ccc(-c2n[nH]c(=S)n2CC=C)cc1 measurement_label=MIC units_label=µg/mL sign_qualifier=> test_result=80
compound=CCCCCCNC(=S)Nc1ccc(-c2n[nH]c(=S)n2C)cc1 measurement_label=MIC units_label=µg/mL sign_qualifier== test_result=48
compound=CNC(=S)Nc1ccc(-c2nnc(SCc3ccccc3)n2C)cc1 measurement_label=MIC units_label=µg/mL sign_qualifier=> test_result=16
compound="Nc1nc2c(ncn2COC(CO)CO)c(=O)[nH]1 [GANCICLOVIR]" measurement_label=MIC units_label=µg/mL sign_qualifier== test_result=0.032
compound=C=CCn1c(COc2ccc(NC(=S)Nc3ccccc3)cc2)n[nH]c1=S measurement_label=MIC units_label=µg/mL sign_qualifier=> test_result=80
compound=C=CCNC(=S)Nc1ccc(-c2n[nH]c(=S)n2CCCCCC)cc1 measurement_label=MIC units_label=µg/mL sign_qualifier=> test_result=16
compound="Nc1nc2c(ncn2COCCO)c(=O)[nH]1 [ACYCLOVIR]" measurement_label=MIC units_label=µg/mL sign_qualifier== test_result=0.384
compound=CCn1c(COc2ccc(N)cc2)n[nH]c1=S measurement_label=MIC units_label=µg/mL sign_qualifier== test_result=240
compound=C=CCn1c(-c2ccc(NC(=S)Nc3ccccc3)cc2)n[nH]c1=S measurement_label=MIC units_label=µg/mL sign_qualifier=> test_result=16
compound=CNC(=S)Nc1ccc(-c2n[nH]c(=S)n2-c2ccccc2)cc1 measurement_label=MIC units_label=µg/mL sign_qualifier=> test_result=80
compound=CCCCCCNC(=S)Nc1ccc(-c2n[nH]c(=S)n2CC)cc1 measurement_label=MIC units_label=µg/mL sign_qualifier=> test_result=80
compound=C=CCn1c(-c2ccc(NC(=S)NC)cc2)n[nH]c1=S measurement_label=MIC units_label=µg/mL sign_qualifier== test_result=240

###

test system: Human alphaherpesvirus 2; assay: Antiviral activity against HSV2 G in human HEL cells assessed as reduction of virus-induced cytopathogenicity; assay type: functional; settings: Human alphaherpesvirus 2, G
Measurement Label: log10 of MIC (log10 of the value in µg/mL)

sample_smiles=Nc1nc2c(ncn2COC(CO)CO)c(=O)[nH]1 test_result=-1.49
sample_smiles=Nc1ccc(OCc2n[nH]c(=S)n2-c2ccccc2)cc1 test_result=2.38
sample_smiles=C=CCNC(=S)Nc1ccc(OCc2n[nH]c(=S)n2CC)cc1 test_result=2.38
sample_smiles=CCNC(=S)Nc1ccc(OCc2n[nH]c(=S)n2C)cc1 test_result=2.38
sample_smiles=CCNC(=S)Nc1ccc(OCc2n[nH]c(=S)n2CC)cc1 test_result=2.38
sample_smiles=CCCCCCNC(=S)Nc1ccc(-c2n[nH]c(=S)n2C)cc1 test_result=1.68
sample_smiles=C=CCNC(=S)Nc1ccc(-c2n[nH]c(=S)n2CC)cc1 test_result=2.38
sample_smiles=C=CCNC(=S)Nc1ccc(OCc2n[nH]c(=S)n2C)cc1 test_result=2.38
sample_smiles=C=CCn1c(COc2ccc(N)cc2)n[nH]c1=S test_result=2.38
sample_smiles=C=CCNC(=S)Nc1ccc(-c2n[nH]c(=S)n2C)cc1 test_result=2.38
sample_smiles=CCNC(=S)Nc1ccc(-c2n[nH]c(=S)n2C)cc1 test_result=2.38
sample_smiles=NC(=O)c1ncn([C@@H]2O[C@H](CO)[C@@H](O)[C@H]2O)n1 test_result=1.68
sample_smiles=Cn1c(COc2ccc(N)cc2)n[nH]c1=S test_result=1.90
sample_smiles=C=CCNC(=S)Nc1ccc(OCc2n[nH]c(=S)n2-c2ccccc2)cc1 test_result=2.38
sample_smiles=CCn1c(COc2ccc(N)cc2)n[nH]c1=S test_result=2.38
sample_smiles=C=CCn1c(-c2ccc(NC(=S)NC)cc2)n[nH]c1=S test_result=2.38
sample_smiles=Nc1nc2c(ncn2COCCO)c(=O)[nH]1 test_result=-0.42
sample_smiles=CNC(=S)Nc1ccc(-c2n[nH]c(=S)n2C)cc1 test_result=2.38
